Target: Human CB1R (Cannabinoid receptor 1) (Homo sapiens (Human), UniProt P21554)
Sequence (P21554 whole entry): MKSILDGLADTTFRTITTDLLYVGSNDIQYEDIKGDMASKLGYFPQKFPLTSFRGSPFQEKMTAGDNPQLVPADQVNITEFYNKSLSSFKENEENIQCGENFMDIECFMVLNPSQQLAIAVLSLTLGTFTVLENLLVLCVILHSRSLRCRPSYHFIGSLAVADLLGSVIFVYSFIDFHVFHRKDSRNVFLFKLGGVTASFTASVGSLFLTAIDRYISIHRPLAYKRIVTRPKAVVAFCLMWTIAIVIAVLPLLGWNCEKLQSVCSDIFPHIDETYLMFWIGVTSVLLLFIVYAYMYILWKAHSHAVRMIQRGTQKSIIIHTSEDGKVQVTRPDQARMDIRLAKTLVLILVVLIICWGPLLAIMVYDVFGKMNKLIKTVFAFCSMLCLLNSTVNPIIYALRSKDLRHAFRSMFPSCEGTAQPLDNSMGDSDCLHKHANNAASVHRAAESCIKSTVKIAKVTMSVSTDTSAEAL
Assay: CB-1 in vitro cAMP assay (HTRF), inverse agonism
Details: mean where tested more than once
Assign labels as follows, please: Fulfilled for EC50 below 1000 nM; Not fulfilled for EC50 equal to or exceeding 1000 nM.

### Prompt Bench note: check whether CCOC(=O)CS(=O)(=O)N1CCC(Nc2cc(=O)[nH]c3ccc(C(c4ccc(Cl)cc4)c4ccc(Cl)cc4)cc23)CC1 shows EC50 below 1000 nM
### Response Fulfilled

### Prompt What about this molecule? O=c1cc(NC2CCN(S(=O)(=O)C(F)(F)F)CC2)c2cc(C(c3ccc(Cl)cc3)c3ccc(Cl)cc3)cc(Br)c2[nH]1
### Response Fulfilled

### Prompt What about this molecule? NC(=O)CC(=O)N1CCC(Nc2cc(=O)[nH]c3ccc(C(c4ccc(Cl)cc4)c4ccc(Cl)cc4)cc23)CC1
### Response Not fulfilled

### Prompt What about this molecule? O=C(O)COc1ccc(Nc2cc(=O)[nH]c3ccc(C(c4ccc(Cl)cc4)c4ccc(Cl)cc4)cc23)cc1
### Response Not fulfilled

### Prompt What about this molecule? OC(c1ccc(Cl)cc1)(c1ccc2nccc(/C=C\c3ccccc3)c2c1)c1cscn1 (mixture of isomers)
### Response Not fulfilled

### Prompt What about this molecule? CCOC(=O)CC(=O)N1CCC(Nc2cc(=O)[nH]c3ccc(C(c4ccc(Cl)cc4)c4ccc(Cl)cc4)cc23)CC1
### Response Fulfilled

### Prompt What about this molecule? O=C(O)COc1cc(C(c2ccc(Cl)cc2)c2ccc(Cl)cc2)cc2c(NC3CCN(S(=O)(=O)C(F)(F)F)CC3)cc(=O)[nH]c12
### Response Not fulfilled

Sourced from patent US9266835B2
